Tested on: Vero
Assay: Cytotoxicity against African green monkey Vero cells assessed as reduction in cell viability after 72 hrs by MTT assay
Type: cell-based
Conditions: Chlorocebus sabaeus
pIC50: −log10 of the molar value.
// criterion not met strictly below 5 in pIC50; criterion met otherwise

Some solved cases for reference:
CCCCCC(=O)NS(=O)(=O)OC[C@H]1O[C@@H](n2cnc3c(N)ncnc32)[C@H](O)[C@@H]1O | criterion not met
CCCC(=O)NS(=O)(=O)OC[C@H]1O[C@@H](n2cnc3c(N)ncnc32)[C@H](O)[C@@H]1O | criterion not met
NCCCCCCCCCCCC(=O)NS(=O)(=O)OC[C@H]1O[C@@H](n2cnc3c(N)ncnc32)[C@H](O)[C@@H]1O | criterion not met
CCCCCCCCCCCCCC(=O)NS(=O)(=O)OC[C@H]1O[C@@H](n2cnc3c(N)ncnc32)[C@H](O)[C@@H]1O | criterion met
CCCCCC/C=C/CCCC(=O)NS(=O)(=O)OC[C@H]1O[C@@H](n2cnc3c(N)ncnc32)[C@H](O)[C@@H]1O | criterion not met
[N-]=[N+]=NCCCCCCCCCCCC(=O)NS(=O)(=O)OC[C@H]1O[C@@H](n2cnc3c(N)ncnc32)[C@H](O)[C@@H]1O | criterion met

Hello, I need to know if "CCCCOCCOCCOCC(=O)NS(=O)(=O)OC[C@H]1O[C@@H](n2cnc3c(N)ncnc32)[C@H](O)[C@@H]1O" has measured pIC50 not below 5. Thanks!
criterion not met

Query "Nc1ncnc2c1ncn2[C@@H]1O[C@H](COS(=O)(=O)NC(=O)CCCCCCCCCCOc2ccccc2)[C@@H](O)[C@H]1O" next
criterion met
